Values compiled from patent US11273142B2.

test: NOAEL in rat; details: in vivo, after 3 mg/kg COMPOUND 1

| MOLECULE | AUC, ng·h/mL |
| --- | --- |
| COC1C(OC(=O)N[C@H]2CC[C@H](N)CC2)CC[C@]2(CO2)C1[C@@]1(C)O[C@@H]1CC=C(C)C (stereo partly shown) | 23.3 |

---

experiment: NOAEL in dog; details: in vivo, after 0.5 mg/kg COMPOUND 1
ASSAY METRIC: Cmax (ng/mL)

| MOLECULE | MEAS VALUE |
| --- | --- |
| COC1C(OC(=O)N[C@H]2CC[C@H](N)CC2)CC[C@]2(CO2)C1[C@@]1(C)O[C@@H]1CC=C(C)C (stereo partly shown) | 0.4 |

---

assay: NOAEL in rat; conditions: in vivo, after 3 mg/kg COMPOUND 1

| COMPOUND | UNIT SYMBOL | Cmax |
| --- | --- | --- |
| COC1C(OC(=O)N[C@H]2CC[C@H](N)CC2)CC[C@]2(CO2)C1[C@@]1(C)O[C@@H]1CC=C(C)C (stereo partly shown) | ng/mL | 1.5 |
